target: DAPK1 (Homo sapiens, UniProt P53355); construct: purchased in-house DSF panel (SGC Frankfurt); test: DSF; assay type: binding
Sequence (P53355 1-285): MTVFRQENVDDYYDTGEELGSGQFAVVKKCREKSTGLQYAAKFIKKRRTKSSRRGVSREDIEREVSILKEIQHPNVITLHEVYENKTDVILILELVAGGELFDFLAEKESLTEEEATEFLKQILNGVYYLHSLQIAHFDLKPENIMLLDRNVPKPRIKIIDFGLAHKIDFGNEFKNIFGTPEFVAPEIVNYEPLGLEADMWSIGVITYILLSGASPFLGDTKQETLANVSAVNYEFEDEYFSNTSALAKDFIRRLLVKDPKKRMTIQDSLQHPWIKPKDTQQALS
Please provide measured ΔTm DAPK1 for the entries that follow.
Answer with a number only, understood to be in °C.

Exam item: Can you look up the measured ΔTm DAPK1 of CC(C)(C)OC(=O)Nc1ccc(CNc2nccc(Nc3cc(C(=O)OC(C)(C)C)[nH]n3)n2)cc1 [43d] for me?
Marked response: -0.4

Exam item: Can you look up the measured ΔTm DAPK1 of N#CCc1ccc(Nc2nccc(Nc3cc(C4CC4)[nH]n3)n2)cc1 [compound 1, reference compound] for me?
Marked response: 4.9

Exam item: Can you look up the measured ΔTm DAPK1 of CN[C@@H]1C[C@H]2O[C@@](C)([C@@H]1OC)n1c3ccccc3c3c4c(c5c6ccccc6n2c5c31)C(=O)NC4 [staurosporine, reference compound] for me?
Marked response: 9.8

Exam item: Can you look up the measured ΔTm DAPK1 of COC(=O)c1cc(Nc2ccnc(NCc3ccc(NC(=O)OC(C)(C)C)cc3)n2)[nH]n1 [21i] for me?
Marked response: 0.6

Exam item: Can you look up the measured ΔTm DAPK1 of CC(C)OC(=O)c1cc(Nc2ccnc(NCc3ccc(NC(=O)OC(C)(C)C)cc3)n2)n[nH]1 [42d] for me?
Marked response: -0.3

Exam item: Can you look up the measured ΔTm DAPK1 of COC(=O)c1cc(Nc2ccnc(NCCOCCNC(=O)OC(C)(C)C)n2)[nH]n1 [21d] for me?
Marked response: -2.4

* * *

molecular target: GAK (Homo sapiens); construct: purchased in-house DSF panel (SGC Frankfurt); test: DSF; format: binding
Sequence (O14976 14-351): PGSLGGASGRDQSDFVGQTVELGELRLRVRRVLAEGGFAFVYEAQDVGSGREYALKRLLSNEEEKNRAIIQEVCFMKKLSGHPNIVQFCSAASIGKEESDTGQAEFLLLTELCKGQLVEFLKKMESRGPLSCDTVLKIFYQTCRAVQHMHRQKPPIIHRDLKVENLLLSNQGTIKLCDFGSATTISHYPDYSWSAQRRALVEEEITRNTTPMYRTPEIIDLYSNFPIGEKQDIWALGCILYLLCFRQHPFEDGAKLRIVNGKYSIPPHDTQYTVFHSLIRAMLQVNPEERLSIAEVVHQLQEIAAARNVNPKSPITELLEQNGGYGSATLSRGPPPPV
ΔTm GAK strictly less than -0.9 °C = YES. Otherwise NO.

Exam item: Just wondering, is ΔTm GAK of COC(=O)c1cc(Nc2ccnc(NCc3ccc(NC(=O)OC(C)(C)C)cc3)n2)[nH]n1 [21i] below -0.9 °C?
Marked response: NO

Exam item: Just wondering, is ΔTm GAK of COC(=O)c1cc(Nc2ccnc(NCCOCCNC(=O)OC(C)(C)C)n2)[nH]n1 [21d] below -0.9 °C?
Marked response: NO

Exam item: Just wondering, is ΔTm GAK of CC(C)(C)OC(=O)Nc1ccc(CNc2nccc(Nc3cc(C(=O)OC(C)(C)C)[nH]n3)n2)cc1 [43d] below -0.9 °C?
Marked response: YES

Exam item: Just wondering, is ΔTm GAK of N#CCc1ccc(Nc2nccc(Nc3cc(C4CC4)[nH]n3)n2)cc1 [compound 1, reference compound] below -0.9 °C?
Marked response: NO

* * *

biological target: CDK16/Cyclin Y (Homo sapiens, UniProt Q00536); construct: Full-length kinases were obtained as plasmids cloned in frame with a terminal NanoLuc-fusion; CS1810C178 (CCNY); host or cells: HEK293T; assay: NanoBRET; format: cell-based; details: Figure 7, 11-point dose-response in duplicates; read-out: NanoBRET EC50 ± SEM against CDK16
Sequence (Q00536 whole entry, the tested form may be a part): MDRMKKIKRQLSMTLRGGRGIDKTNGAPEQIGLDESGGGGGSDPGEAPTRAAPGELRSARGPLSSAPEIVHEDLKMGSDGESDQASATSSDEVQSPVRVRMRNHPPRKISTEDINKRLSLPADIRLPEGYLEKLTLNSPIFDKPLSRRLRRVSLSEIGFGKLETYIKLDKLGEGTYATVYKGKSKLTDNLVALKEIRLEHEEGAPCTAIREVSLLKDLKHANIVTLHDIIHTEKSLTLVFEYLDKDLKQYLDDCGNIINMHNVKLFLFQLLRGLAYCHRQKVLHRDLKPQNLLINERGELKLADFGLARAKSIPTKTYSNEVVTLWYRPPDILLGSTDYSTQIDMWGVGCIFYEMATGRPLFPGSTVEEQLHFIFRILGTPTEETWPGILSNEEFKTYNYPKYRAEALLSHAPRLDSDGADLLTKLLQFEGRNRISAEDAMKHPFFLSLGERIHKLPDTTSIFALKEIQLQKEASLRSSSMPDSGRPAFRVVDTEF
Sequence (Q8ND76 2-341 partner limits assumed): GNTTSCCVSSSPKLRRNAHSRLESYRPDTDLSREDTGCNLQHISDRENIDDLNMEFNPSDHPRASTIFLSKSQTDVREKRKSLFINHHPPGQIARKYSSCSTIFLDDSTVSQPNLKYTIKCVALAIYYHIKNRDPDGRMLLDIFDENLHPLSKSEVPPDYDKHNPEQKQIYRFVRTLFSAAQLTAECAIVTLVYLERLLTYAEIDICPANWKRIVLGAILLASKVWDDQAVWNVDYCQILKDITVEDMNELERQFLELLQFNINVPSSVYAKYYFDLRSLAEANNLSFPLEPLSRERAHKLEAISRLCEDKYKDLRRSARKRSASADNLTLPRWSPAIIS
pEC50: −log10 of the molar value.
Decide by pEC50: equal to or exceeding 6 means yes, less means no.

Exam item: Could you please find out whether COC(=O)c1cc(Nc2ccnc(Nc3ccc(CNC(=O)OC(C)(C)C)cc3)n2)[nH]n1 [21h] has pEC50 that meets 6 or exceeds it?
Marked response: yes

Exam item: Could you please find out whether COC(=O)c1cc(Nc2ccnc(Nc3ccc(CCNC(=O)OC(C)(C)C)cc3)n2)[nH]n1 [21a] has pEC50 that meets 6 or exceeds it?
Marked response: yes

Exam item: Could you please find out whether COC(=O)c1cc(Nc2ccnc(Nc3ccc(CC#N)cc3)n2)[nH]n1 [21f] has pEC50 that meets 6 or exceeds it?
Marked response: yes

Exam item: Could you please find out whether COC(=O)c1cc(Nc2nc(Nc3cccc(CCNC(=O)OC(C)(C)C)c3)nc3ccccc23)[nH]n1 [23b] has pEC50 that meets 6 or exceeds it?
Marked response: no

Exam item: Could you please find out whether COC(=O)c1cc(Nc2ccnc(NCCCCCNC(=O)OC(C)(C)C)n2)[nH]n1 [21c] has pEC50 that meets 6 or exceeds it?
Marked response: yes

Exam item: Could you please find out whether Cc1cnc(Nc2ccc(CCNC(=O)OC(C)(C)C)cc2)nc1Nc1cc(C2CC2)n[nH]1 [12a] has pEC50 that meets 6 or exceeds it?
Marked response: yes

Exam item: Could you please find out whether CC(C)c1cc(Nc2ccnc(Nc3ccc(CCNC(=O)OC(C)(C)C)cc3)n2)[nH]n1 [39a] has pEC50 that meets 6 or exceeds it?
Marked response: yes

Exam item: Could you please find out whether COC(=O)c1cc(Nc2nc(NCCCCCCNC(=O)OC(C)(C)C)ncc2Cl)[nH]n1 [22e] has pEC50 that meets 6 or exceeds it?
Marked response: no

Exam item: Could you please find out whether CC(C)(C)OC(=O)NCCOCCNc1nccc(Nc2cc(C3CC3)n[nH]2)n1 [11d] has pEC50 that meets 6 or exceeds it?
Marked response: yes

Exam item: Could you please find out whether COC(=O)c1cc(Nc2nc(Nc3ccc(CCNC(=O)OC(C)(C)C)cc3)ncc2Cl)[nH]n1 [22a] has pEC50 that meets 6 or exceeds it?
Marked response: no

Exam item: Could you please find out whether COC(=O)c1cc(Nc2ccnc(NCc3ccc(N)cc3)n2)n[nH]1 [compound 25] has pEC50 that meets 6 or exceeds it?
Marked response: yes

Exam item: Could you please find out whether Cc1cc(Nc2ccnc(Nc3ccc(CCNC(=O)OC(C)(C)C)cc3)n2)[nH]n1 [38a] has pEC50 that meets 6 or exceeds it?
Marked response: yes

Exam item: Could you please find out whether CC(C)(C)OC(=O)NCCCCCNc1nccc(Nc2cc(C(C)(C)C)n[nH]2)n1 [40b] has pEC50 that meets 6 or exceeds it?
Marked response: yes

Exam item: Could you please find out whether CNC(=O)c1cc(Nc2ccnc(Nc3ccc(CCNC(=O)OC(C)(C)C)cc3)n2)[nH]n1 [41a] has pEC50 that meets 6 or exceeds it?
Marked response: no

Exam item: Could you please find out whether CC(C)(C)OC(=O)NCCCCCNc1nccc(Nc2cc(C(=O)OC(C)(C)C)[nH]n2)n1 [43b] has pEC50 that meets 6 or exceeds it?
Marked response: yes
